System: P-gp (MDR1)
procedure.text: in vitro
measurement.parameters: dog, MDCK-MDR1, pH 9

compound: COc1cc([C@@H]2c3cc4c(cc3[C@@H](O[C@@H]3O[C@@H]5CO[C@@H](C)O[C@H]5[C@H](O)[C@H]3O)[C@H]3COC(=O)[C@H]23)OCO4)cc(OC)c1O [Etoposide]
assay.system: P-gp (MDR1)
unit.descriptor: ×10⁻⁶ cm/s
Papp: 0.19
--
compound: C[C@H]1O[C@@H](O[C@H]2[C@@H](O)C[C@H](O[C@H]3[C@@H](O)C[C@H](O[C@H]4CC[C@@]5(C)[C@H](CC[C@@H]6[C@@H]5C[C@@H](O)[C@]5(C)[C@@H](C7=CC(=O)OC7)CC[C@]65O)C4)O[C@@H]3C)O[C@@H]2C)C[C@H](O)[C@@H]1O
assay.system: P-gp (MDR1)
unit.descriptor: ×10⁻⁶ cm/s
Papp: 1.9
--
compound: CCCC(=O)Nc1ccc(OCC(O)CNC(C)C)c(C(C)=O)c1 (stereo not shown)
assay.system: P-gp (MDR1)
unit.descriptor: ×10⁻⁶ cm/s
Papp: 7.41
--
compound: COc1cc2c(c(OC)c1OC)-c1ccc(OC)c(=O)cc1[C@@H](NC(C)=O)CC2
assay.system: P-gp (MDR1)
unit.descriptor: ×10⁻⁶ cm/s
Papp: 0.41

* * *

System: P-gp (MDR1)
procedure.text: in vitro
measurement.parameters: dog, MDCK-MDR1, pH 6

molecule: COc1cccc2c1C(=O)c1c(O)c3c(c(O)c1C2=O)C[C@@](O)(C(=O)CO)C[C@@H]3O[C@H]1C[C@H](N)[C@H](O)[C@H](C)O1 [Doxorubicin]
unit.descriptor: ×10⁻⁶ cm/s
Papp B→A: 0.23

molecule: C[C@H]1O[C@@H](O[C@H]2[C@@H](O)C[C@H](O[C@H]3[C@@H](O)C[C@H](O[C@H]4CC[C@@]5(C)[C@H](CC[C@@H]6[C@@H]5C[C@@H](O)[C@]5(C)[C@@H](C7=CC(=O)OC7)CC[C@]65O)C4)O[C@@H]3C)O[C@@H]2C)C[C@H](O)[C@@H]1O [Digoxin]
unit.descriptor: ×10⁻⁶ cm/s
Papp B→A: 16.3

molecule: COc1cc2c(c(OC)c1OC)-c1ccc(OC)c(=O)cc1[C@@H](NC(C)=O)CC2 [Colchicine]
unit.descriptor: ×10⁻⁶ cm/s
Papp B→A: 4.42

molecule: COc1cc([C@@H]2c3cc4c(cc3[C@@H](O[C@@H]3O[C@@H]5CO[C@@H](C)O[C@H]5[C@H](O)[C@H]3O)[C@H]3COC(=O)[C@H]23)OCO4)cc(OC)c1O [Etoposide]
unit.descriptor: ×10⁻⁶ cm/s
Papp B→A: 3.16

molecule: CCCC(=O)Nc1ccc(OCC(O)CNC(C)C)c(C(C)=O)c1 (centres unmarked) [Acebutolol]
unit.descriptor: ×10⁻⁶ cm/s
Papp B→A: 0.47

* * *

Quick list: recovery per entry.
procedure.text: in vitro
measurement.parameters: dog, MDCK-MDR1, pH 6

compound: COc1cc2c(c(OC)c1OC)-c1ccc(OC)c(=O)cc1[C@@H](NC(C)=O)CC2 [Colchicine]
recovery: 78 to 109%
//
compound: COc1cccc2c1C(=O)c1c(O)c3c(c(O)c1C2=O)C[C@@](O)(C(=O)CO)C[C@@H]3O[C@H]1C[C@H](N)[C@H](O)[C@H](C)O1 [Doxorubicin]
recovery: 90 to 96%
//
compound: C[C@H]1O[C@@H](O[C@H]2[C@@H](O)C[C@H](O[C@H]3[C@@H](O)C[C@H](O[C@H]4CC[C@@]5(C)[C@H](CC[C@@H]6[C@@H]5C[C@@H](O)[C@]5(C)[C@@H](C7=CC(=O)OC7)CC[C@]65O)C4)O[C@@H]3C)O[C@@H]2C)C[C@H](O)[C@@H]1O [Digoxin]
recovery: 74 to 88%
//
compound: CCCC(=O)Nc1ccc(OCC(O)CNC(C)C)c(C(C)=O)c1 (centres unmarked) [Acebutolol]
recovery: 88 to 120%
//
compound: COc1cc([C@@H]2c3cc4c(cc3[C@@H](O[C@@H]3O[C@@H]5CO[C@@H](C)O[C@H]5[C@H](O)[C@H]3O)[C@H]3COC(=O)[C@H]23)OCO4)cc(OC)c1O [Etoposide]
recovery: 92 to 97%
